Experiment: Pharmacokinetic study in rats (intravenous or gavage, plasma LC-MS/MS)
Assay type: in vivo
Details: male, rat, plasma; SD rats, po, 5 mg/kg
Method: SD rats: male, 6-8 weeks old, weighing 200-300 g, purchased from SPF ( Beijing ) Biotechnology Co.,Ltd.. At each PK sampling point, 200 µL of whole blood was collected into EDTA-K2 anticoagulant blood tubes and centrifuged at 4°C for 30 min to obtain plasma. […] All collected plasma samples were stored on dry ice or frozen until analyzed. […] Pharmacokinetic parameters were calculated by the […] of Phoenix TM Winnonlin® 8.3 software.
Measured Property: Cmax (ng/mL)
Give the value in ng/mL but do not write ng/mL after it.

O=C(O)c1ccc2nc(CC3CC=C(c4cccc(OCc5ccc(Cl)c6cc(Cl)oc56)n4)CC3)n(C[C@@H]3CCO3)c2c1 (some centres unmarked) = 460

Specify Cmax for O=C(O)c1ccc2nc(CC3CC=C(c4cccc(OCc5ccc(Cl)c6cc(F)oc56)n4)CC3)n(C[C@@H]3CCO3)c2c1 (some centres unmarked) and stop.
754

---

assay: Pharmacokinetic study in rats (intravenous or gavage, plasma LC-MS/MS); format: in vivo; details: rat, plasma; SD rats, iv, 1 mg/kg
Measured Property: half-life

O=C(O)c1ccc2nc(C[C@H]3CC[C@H](c4cccc(OCc5ccc(Cl)c6cc(Cl)oc56)n4)CC3)n(C[C@@H]3CCO3)c2c1 [Compound 38B] = 1.45 h

Now examine the next entry.
Name the recorded half-life of the compound listed here: O=C(O)c1ccc2nc(C[C@H]3CC[C@H](c4cccc(OCc5ccc(Cl)c6cc(F)oc56)n4)CC3)n(C[C@@H]3CCO3)c2c1 [Compound 27B]
0.707 h
